- tested.on: recombinant human MGAT2 (Homo sapiens (Human), UniProt Q3SYC2)
- Sequence (Q3SYC2 whole entry): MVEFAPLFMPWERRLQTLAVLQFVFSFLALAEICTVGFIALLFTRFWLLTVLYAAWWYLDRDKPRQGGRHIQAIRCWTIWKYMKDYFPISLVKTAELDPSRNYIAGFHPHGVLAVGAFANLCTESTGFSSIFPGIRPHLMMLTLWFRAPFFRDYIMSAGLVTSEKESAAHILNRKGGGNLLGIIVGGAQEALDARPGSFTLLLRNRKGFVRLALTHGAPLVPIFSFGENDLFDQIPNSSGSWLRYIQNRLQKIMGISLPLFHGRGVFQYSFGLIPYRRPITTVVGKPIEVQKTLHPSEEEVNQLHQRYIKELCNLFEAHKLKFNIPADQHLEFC
- method: Measurement of human MGAT2 inhibitory activity
- Format: biochemical
- run.parameters: read-out: IC50 (concentration exhibiting 50% enzyme inhibition), Table 52
Entries whose IC50 is below 40 nM take true (1); entries at or above 40 nM take false (0).

chemical.smiles	tested.on	discrete.label
CC(C)(O)CCn1nc2c(c1NC(=O)CS(C)(=O)=O)C(=O)N[C@@]1(CCc3cc(OCCCC(F)(F)F)ccc31)C2	recombinant human MGAT2 (Homo sapiens (Human), UniProt Q3SYC2)	false (0)
CC(C)(O)c1cccc(-n2nc3c(c2NC(=O)CS(C)(=O)=O)C(=O)N[C@@]2(CCc4cc(OCC(F)(F)F)ccc42)C3)c1	recombinant human MGAT2 (Homo sapiens (Human), UniProt Q3SYC2)	false (0)
CS(=O)(=O)CC(=O)Nc1c2c(nn1CCC1CC1)C[C@]1(CCc3cc(Br)ccc31)NC2=O	recombinant human MGAT2 (Homo sapiens (Human), UniProt Q3SYC2)	true (1)
CS(=O)(=O)CC(=O)Nc1c2c(nn1-c1ccc(F)cn1)C[C@@]1(CCc3cc(OCC(F)(F)F)ccc31)NC2=O	recombinant human MGAT2 (Homo sapiens (Human), UniProt Q3SYC2)	true (1)
O=C(Nc1c2c(nn1CCC1CC1)C[C@]1(CCc3cc(OCCCC(F)(F)F)ccc31)NC2=O)c1ccc(F)cc1	recombinant human MGAT2 (Homo sapiens (Human), UniProt Q3SYC2)	false (0)
COc1ccc(-n2nc3c(c2NC(=O)CS(C)(=O)=O)C(=O)N[C@@]2(CCc4cc(OCC(F)(F)F)ccc42)C3)cc1	recombinant human MGAT2 (Homo sapiens (Human), UniProt Q3SYC2)	true (1)
Cc1ccc(-n2nc3c(c2NC(=O)CS(C)(=O)=O)C(=O)N[C@@]2(CCc4cc(OCC(F)(F)F)ccc42)C3)cc1C	recombinant human MGAT2 (Homo sapiens (Human), UniProt Q3SYC2)	true (1)
O=C1N[C@@]2(CCc3cc(OCC(F)(F)F)ccc32)Cc2nn(CCC3CC3)c(C(=O)NCC3(CO)COC3)c21	recombinant human MGAT2 (Homo sapiens (Human), UniProt Q3SYC2)	false (0)
CS(=O)(=O)NCc1c2c(nn1CCC1CC1)C[C@]1(CCc3cc(OCC(F)(F)F)ccc31)NC2=O	recombinant human MGAT2 (Homo sapiens (Human), UniProt Q3SYC2)	false (0)
O=C1N[C@@]2(CCc3cc(OCC(F)(F)F)cc(F)c32)Cc2nn(CCC3CC3)c(-c3nnn[nH]3)c21	recombinant human MGAT2 (Homo sapiens (Human), UniProt Q3SYC2)	true (1)
O=C(NCc1c2c(nn1CCC1CC1)C[C@]1(CCc3cc(OCC(F)(F)F)ccc31)NC2=O)c1ccno1	recombinant human MGAT2 (Homo sapiens (Human), UniProt Q3SYC2)	false (0)
O=C(Nc1c2c(nn1CCC1CC1)C[C@]1(CCc3cc(OCCCC(F)(F)F)ccc31)NC2=O)c1ccccc1	recombinant human MGAT2 (Homo sapiens (Human), UniProt Q3SYC2)	true (1)
CC(C)(C)S(=O)(=O)NC(=O)c1c2c(nn1CCC1CC1)C[C@]1(CCc3cc(OCC(F)(F)F)ccc31)NC2=O	recombinant human MGAT2 (Homo sapiens (Human), UniProt Q3SYC2)	false (0)
CS(=O)(=O)CC(=O)Nc1c2c(nn1CCC1CC1)C[C@]1(CCc3cc(C(F)(F)F)ccc31)NC2=O	recombinant human MGAT2 (Homo sapiens (Human), UniProt Q3SYC2)	true (1)
